Where these numbers come from: patent US20220112208A1

Tested on: NO production in LPS-treated RAW 264.7 cells
ASSAY_SUMMARY: Inhibition of NO production (Griess reaction) in LPS-treated RAW 264.7 macrophages
Assay type: cell-based, mouse
CONDITION_SUMMARY: Mus musculus, RAW264.7; LPS-treated RAW 264.7; values given in nM; read-out: IC50 for inhibition of NO production (anti-inflammatory activity)
Measured IC50, listed per entry.
Write it as a number; the unit nM goes unstated.

Task: Data request, read-out IC50, for CC(C)(O)C1CC[C@](C)([C@@H](O)CC[C@](C)(O)[C@H]2CC[C@H]3O[C@@H]([C@]4(C)CC[C@@H](Br)C(C)(C)O4)CC[C@]3(C)O2)O1 (some centres unmarked)
Result: 4.39

Task: For the molecule CC(=O)OC(C)(C)C1CC[C@](C)([C@@H](O)CC[C@](C)(O)[C@H]2CC[C@H]3O[C@@H]([C@]4(C)CC[C@@H](Br)C(C)(C)O4)CC[C@]3(C)O2)O1 (some centres unmarked) , what IC50 is on record?
Result: 2.63
